system: SF-295; assay: NCI tumour cell line growth inhibition, 48 h
The source made the active and inactive calls. Rule as the data show it: active = GI50 up to about 1.1 µM and inactive = higher.
Response enum: yes (1) = active, no (0) = inactive

C/C(=C1\N=C(c2ccccc2)OC1=O)c1ccccc1: no (0)

Would you kindly look at the next entry?
Give the logged outcome of this assay for the following compound: COC(=O)C1Cc2ccc3c(c2C1=O)CCCC3 (configuration not stated)
no (0)

* * *

system: HCC 2998; experiment: NCI tumour cell line growth inhibition, 48 h
Active and inactive are the calls of the source. No stated cut-off is given here; in the data, active = GI50 up to about 1.1 µM and inactive = higher.
OBSERVATION_TYPE: GI50

Study these solved cases before continuing.
CC1=C(C(=O)Nc2ccccc2)C(c2ccc([N+](=O)[O-])cc2)C(C(=O)Nc2ccccc2)=C(C)N1: 20.2 µM (inactive)
Nc1n[nH]c(N)n1: 6900 µM (inactive)
OC1[C@@H]2[C@@H](O)[C@H](O)[C@@H](O)N2C[C@@H]1O (stereo not given in full): > 100 µM (inactive)
O=C(O)c1ccc(NS(=O)(=O)Cc2ccccc2)cc1: > 100 µM (inactive)
Cn1ncc2c(NCc3ccccc3)ncnc21: > 100 µM (inactive)

Give one value of GI50 per listed molecule.
1. C=C1[C@@H](O)C[C@@]23CC[C@@H]4[C@@]5(C)CC[C@@H](OC(C)=O)C(C)(C)[C@@H]5C[C@@H](OC5OC(COC(C)=O)C(O)C(O)C5O)[C@@]4(C)C2=CC[C@H]3[C@H]1C (stereo not given in full)
2. C/C(CC(=O)Nc1cccc([N+](=O)[O-])c1)=N/NC(N)=S
3. O=c1cc(/N=N\c2ccc(Br)cc2)[nH]c(=S)[nH]1
4. O=C1OC(CC(=O)c2ccccc2Cl)C(Cl)=C1Cl (stereo not given)
5. N#Cc1c(-c2cccc(Br)c2)cc(-c2ccc(Cl)cc2)nc1N
6. COc1ccc2nc3cc([N+](=O)[O-])ccc3c(Nc3ccc(S(=O)(=O)N=C(N)N)cc3)c2c1
7. Cc1occc1/C(S)=N\c1ccc(Cl)c(C(=O)OCC2CC2)c1

1. 1.75 µM (inactive)
2. > 100 µM (inactive)
3. 17.8 µM (inactive)
4. > 100 µM (inactive)
5. 17.3 µM (inactive)
6. 19 µM (inactive)
7. 26.7 µM (inactive)

Give one value of GI50 per listed molecule.
1. COC(=O)c1ccc(CCc2cc(O)ccc2O)cc1
2. Cc1ccc(Cc2nn(C)c(=O)n2N)cc1
3. c1ccc2c(c1)Oc1cccc3cccc-2c13
4. CCOC(=O)C1=c2[nH]c3cccc4cccc(c43)n2C=C(C(C)=O)C1CC(C)=O (stereo not given)
5. O=[N+]([O-])c1ccc(C2=NOC(c3ccc(Cl)cc3)N2C23CC4CC(CC(C4)C2)C3)cc1 (stereo not given)

1: 23.9 µM (inactive); 2: > 100 µM (inactive); 3: > 100 µM (inactive); 4: 62.7 µM (inactive); 5: 64.1 µM (inactive)

Give one value of GI50 per listed molecule.
1. O=c1oc2cc(O)ccc2c(O)c1C(c1ccccc1F)c1c(O)c2ccc(O)cc2oc1=O
2. Cc1noc(NS(=O)(=O)c2ccc(NC(=O)c3ccc4nc5ccccc5c(Nc5ccc(S(=O)(=O)Nc6onc(C)c6C)cc5)c4c3)cc2)c1C
3. Cc1cn(C2CC(n3cc(Cn4cc(F)c(=O)[nH]c4=O)nn3)C(CO)O2)c(=O)[nH]c1=O (stereo not given)

1: 21.2 µM (inactive); 2: > 100 µM (inactive); 3: > 100 µM (inactive)
